Target: Polymerase acidic protein (Influenza A virus (A/Puerto Rico/8/1934(H1N1))) (UniProt P03433)
Test: Inhibition of Influenza Viral Focus Formation at 13 uM relative to control
Format: functional, cell-based
Conditions: Canis lupus familiaris, MDCK
Observable: inhibition (%)
# output: bare number, implied unit %

Ask: Entry COc1ccc2c(c1)CCc1ccc(cc1)Oc1cc(ccc1O)CCc1ccc-2c(O)c1 : reported inhibition = ?
Reply: -3.59

Ask: Input Oc1cc2cc(c1O)Oc1ccc(cc1)CCc1cccc(O)c1Oc1cccc(c1)CC2 [MARCHANTIN A]
Reply: 2.33

Ask: Could you do the same for COc1cc2c(cc1O)-c1ccc(O)cc1CCc1cc(O)c(O)c(c1)Oc1ccc(cc1)CC2 , please?
Reply: -4.66

Ask: Can you check COc1cccc2c1Oc1cccc(c1)CCc1cc(OC)c(OC)c(c1)Oc1ccc(cc1)CC2 next?
Reply: -2.75

Ask: Same lookup for COC1Cc2cccc(c2)Oc2c(O)cccc2CCc2ccc(cc2)Oc2cc1cc(O)c2O (stereo not given) [MARCHANTIN E] , please.
Reply: 2.96

The measurements presented in this section are drawn from ChEMBL document CHEMBL2040545.
